B1: tRNA (parent)
chain: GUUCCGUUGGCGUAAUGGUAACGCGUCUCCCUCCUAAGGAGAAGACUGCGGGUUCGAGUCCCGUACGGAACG

Variants of: B1
Experiment: yeast fitness relative to wild type (ratio to wild type); higher = fitter; tRNA-Arg(CCU), competitive growth, 37 C, YPD
This sample holds only a part of the variants without activity.
parameterMeasured: yeast fitness

Some solved cases for reference:
Using the record for G12A C31U , report its yeast fitness.
0.919

Using the record for U16G G18C A21U , report its yeast fitness.
0.59

Using the record for C4A A40U A43U A70U , report its yeast fitness.
≤ 0.5

Using the record for C30A C62G , report its yeast fitness.
0.662

Using the record for U7A G9C , report its yeast fitness.
0.674

Others:
Using the record for C11U C34U G38A G44C , report its yeast fitness.
0.541

Using the record for C11G C30G A65C , report its yeast fitness.
≤ 0.5

Using the record for G38A U54C , report its yeast fitness.
0.72

Using the record for G10C A14G , report its yeast fitness.
0.569

Using the record for A36U A42C C55G C61G , report its yeast fitness.
≤ 0.5

Using the record for U19G A69U , report its yeast fitness.
0.892

Using the record for C5U C33G C61A C66U , report its yeast fitness.
≤ 0.5

Using the record for G6A G44C A69U , report its yeast fitness.
0.586

Using the record for C11A U32C A70C , report its yeast fitness.
0.549

Using the record for A43G U47A , report its yeast fitness.
0.88

Using the record for G10A A21C C24A A65C , report its yeast fitness.
0.521

Using the record for C31U G44C A65C , report its yeast fitness.
0.594

Using the record for U8A A21C C29A G39A U54G G58C , report its yeast fitness.
≤ 0.5
